- systemUnderTest: T1, Anti-CD28 Fab (SEQ ID NOs: 696, 697)
- T1 construct: The Fab was biotinylated and captured on neutravidin coated plates in the phage ELISA
- T1 sequence (VH, as listed by the source, chain 1 of 2): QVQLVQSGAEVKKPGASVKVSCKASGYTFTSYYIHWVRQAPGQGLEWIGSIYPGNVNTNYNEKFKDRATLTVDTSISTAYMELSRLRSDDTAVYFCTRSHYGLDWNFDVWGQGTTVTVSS
- T1 sequence (VL, as listed by the source, chain 2 of 2): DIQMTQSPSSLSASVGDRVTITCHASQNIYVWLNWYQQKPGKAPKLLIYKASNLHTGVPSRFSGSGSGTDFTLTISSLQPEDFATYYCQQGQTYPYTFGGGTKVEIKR
- assayExplanation: phage binding ELISA on anti-CD28 Fab plate; competitor: CD28 antigen pre-incubated in the wells
Below is a list of entries, each paired with its recorded Anti-CD28 Fab signal in the presence of CD28 value.
Field format: numeric only.

Measured Anti-CD28 Fab signal in the presence of CD28 of YCDGHAPEYMKKCL (Tested as clonal phage supernatant) [Phage-756] : 0.06

// sample YCEGHSSEYMEKCL (Tested as clonal phage supernatant) [Phage-752] , its Anti-CD28 Fab signal in the presence of CD28 was 0.06

Continuing:
The binder identified as YCDGHLDIYLAKCL (Tested as clonal phage supernatant) [Phage-753] registered its Anti-CD28 Fab signal in the presence of CD28 at 0.08

Entry under test: YCEGHLAQYMWKCL (Tested as clonal phage supernatant) [Phage-750] . Its Anti-CD28 Fab signal in the presence of CD28 was 0.12

Per the records, this binder ( YCDGHSKEYMHKCL (Tested as clonal phage supernatant) [Phage-757] ) has Anti-CD28 Fab signal in the presence of CD28 equal to 0.07
